Here, each record is paired with measured log10(Ki) data.
Biological target: human PDE2A1 (Homo sapiens, UniProt O00408)
Construct: GST; purchased BPS Bioscience (San Diego, Calif.) 60020; host or cells: insect cells
Sequence (O00408 1-920 isoform O00408-2): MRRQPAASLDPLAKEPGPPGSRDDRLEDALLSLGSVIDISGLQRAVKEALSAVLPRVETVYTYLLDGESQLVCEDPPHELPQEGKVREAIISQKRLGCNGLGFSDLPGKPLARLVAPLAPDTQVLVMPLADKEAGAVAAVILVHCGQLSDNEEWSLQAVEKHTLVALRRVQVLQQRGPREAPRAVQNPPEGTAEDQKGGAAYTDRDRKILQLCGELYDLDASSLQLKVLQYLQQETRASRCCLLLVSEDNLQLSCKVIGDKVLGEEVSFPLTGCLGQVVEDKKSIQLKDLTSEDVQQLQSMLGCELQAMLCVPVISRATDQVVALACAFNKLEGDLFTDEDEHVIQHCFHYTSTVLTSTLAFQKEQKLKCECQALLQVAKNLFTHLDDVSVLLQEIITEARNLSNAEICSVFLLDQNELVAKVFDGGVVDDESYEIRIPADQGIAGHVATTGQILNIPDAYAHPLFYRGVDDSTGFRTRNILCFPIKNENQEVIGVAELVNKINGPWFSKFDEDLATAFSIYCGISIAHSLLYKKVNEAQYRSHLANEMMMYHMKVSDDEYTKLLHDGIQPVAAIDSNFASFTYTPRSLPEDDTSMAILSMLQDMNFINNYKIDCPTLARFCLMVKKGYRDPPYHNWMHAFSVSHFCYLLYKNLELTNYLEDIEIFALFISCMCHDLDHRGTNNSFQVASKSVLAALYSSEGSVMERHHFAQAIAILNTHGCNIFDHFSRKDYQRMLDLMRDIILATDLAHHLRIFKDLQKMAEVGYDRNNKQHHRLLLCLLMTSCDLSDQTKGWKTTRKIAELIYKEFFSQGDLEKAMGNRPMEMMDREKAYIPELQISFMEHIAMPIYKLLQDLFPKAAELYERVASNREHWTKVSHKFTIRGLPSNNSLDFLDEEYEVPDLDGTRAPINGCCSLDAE
Test: IMAP FP PDE assay, human PDE2A1
Format: biochemical
Settings: Lab B; read-out: Human PDE2 Ki (nM) Lab B
Observed Property: log10(Ki) (log10 of the value in nM)

Molecule: Cc1nc2c(c(CO)nn2C(C)c2ccc(S(F)(F)(F)(F)F)cc2F)c(=O)[nH]1 (single isomer, unassigned) [Example 121]
Observed Property: log10(Ki)
Reported Value: 0.45
//
Molecule: Cc1nc2c(c(CO)nn2C(c2ccc(C(F)(F)F)c(F)c2)C2CC2)c(=O)[nH]1 (single isomer, unassigned) [Example 91]
Observed Property: log10(Ki)
Reported Value: 0.04
//
Molecule: Cc1nc2c(c(C(=O)N(C)C)nn2C(C)c2ccc(C(F)(F)F)cc2)c(=O)[nH]1 (single isomer, unassigned) [Example 266]
Observed Property: log10(Ki)
Reported Value: 2.82
//
Molecule: Cc1nc2c(c(CC(F)(F)F)nn2C(c2ccc(C(F)(F)F)c(F)c2)C(C)(C)C)c(=O)[nH]1 (single isomer, unassigned) [Example 61]
Observed Property: log10(Ki)
Reported Value: 1.74
//
Molecule: CCc1nc2c(c(CO)nn2C(C)c2ccc(C(F)(F)F)cc2)c(=O)[nH]1 (single isomer, unassigned) [Example 301]
Observed Property: log10(Ki)
Reported Value: 0.67
//
Molecule: Cc1nc2c(c(CO)nn2C(C)c2c(F)cc(C(F)(F)F)cc2F)c(=O)[nH]1 (single isomer, unassigned) [Example 136]
Observed Property: log10(Ki)
Reported Value: 0.70
//
Molecule: Cc1nc2c(c(CO)nn2C(C)c2ccc(C(F)(F)F)c(F)c2)c(=O)[nH]1 (single isomer, unassigned) [Example 12]
Observed Property: log10(Ki)
Reported Value: 2.31
//
Molecule: Cc1nc2c(c(C(F)F)nn2C(C)c2ccc(S(F)(F)(F)(F)F)cc2)c(=O)[nH]1 (single isomer, unassigned) [Example 162]
Observed Property: log10(Ki)
Reported Value: 0.26
//
Molecule: Cc1nc2c(c(C(F)F)nn2C2(c3ccc(C(F)(F)F)cc3)COC2)c(=O)[nH]1 [Example 163]
Observed Property: log10(Ki)
Reported Value: 0.98
//
Molecule: Cc1nc2c(c(C(F)(F)CO)nn2C(C)c2ccc(C(F)(F)F)cc2)c(=O)[nH]1 (single isomer, unassigned) [Example 255]
Observed Property: log10(Ki)
Reported Value: 0.20
